Tested on: 22RV1 cells
ASSAY COMMENT: Cytotoxicity assessment (Cell-titer-glo cell viability), 22RV1
Format: cell-based
REPORTED CONDITIONS: 22RV1 cells, 6 days of treatment, Cell-titer-glo, vs DMSO; read-out: 22RV1 (CC50)
RESULT TYPE: CC50 (µM)
Only the number, expressed in µM, is required.

Using known records, supply CC50 for CC1(C)C(NC(=O)c2ccc(OCCOCCOCCOCCOCCOCCOCCCCNc3cccc4nnn(C5CCC(=O)NC5=O)c(=O)c34)cc2)C(C)(C)C1Oc1ccc(C#N)c(Cl)c1 (stereo not shown) [Example 6]
7.1

* * *

Target or system LNCaP cells: recorded log10(CC50) listed per item.
Please note: log10 values; quantity CC50; unit µM.

CC1(C)[C@H](NC(=O)c2ccc(OCCOCCOCCOCCOCCOCCCNc3cccc4nnn(C5CCC(=O)NC5=O)c(=O)c34)cc2)C(C)(C)[C@H]1Oc1ccc(C#N)c(Cl)c1 (single isomer, unassigned) [Example 3] :: 0.47
CC1(C)[C@H](NC(=O)c2ccc(N3CCN(CCC4CCN(c5ccc6nnn(C7CCC(=O)NC7=O)c(=O)c6c5)CC4)CC3)cc2)C(C)(C)[C@H]1Oc1ccc(C#N)c(Cl)c1 (some centres unmarked) :: -0.37
CC1(C)[C@H](NC(=O)c2ccc(OCCOCCOCCOCCOCCOCCCNc3cccc4nnn(C5CCC(=O)NC5=O)c(=O)c34)cc2)C(C)(C)[C@H]1Oc1ccc(C#N)c(Cl)c1 (single isomer, unassigned) [Example 4] :: 0.73
CC1(C)[C@H](NC(=O)c2ccc(N3CCN(CC4(F)CCN(C(=O)C5CN(c6ccc7nnn(C8CCC(=O)NC8=O)c(=O)c7c6)C5)CC4)CC3)cc2)C(C)(C)[C@H]1Oc1ccc(C#N)c(Cl)c1 (some centres unmarked) :: -1.27

Read the next record carefully.
Using known records, supply log10(CC50) for CC1(C)C(NC(=O)c2ccc(OCCOCCOCCOCCOCCNc3cccc4nnn(C5CCC(=O)NC5=O)c(=O)c34)cc2)C(C)(C)C1Oc1ccc(C#N)c(Cl)c1 (centres unmarked)
0.69

* * *

CC50: recorded values
Test system: 22RV1 cells
ASSAY COMMENT: Cytotoxicity assessment (Cell-titer-glo cell viability), 22RV1
Type: cell-based
Only the number, expressed in nM, is required.

CC1(C)[C@H](NC(=O)c2ccc(OCCOCCOCCOCCOCCOCCCNc3cccc4nnn(C5CCC(=O)NC5=O)c(=O)c34)cc2)C(C)(C)[C@H]1Oc1ccc(C#N)c(Cl)c1 (single isomer, unassigned) [Example 4] :: 4460

Lab note: 22RV1 cells assay, enter CC50 for CC1(C)[C@H](NC(=O)c2ccc(OCCOCCOCCOCCOCCOCCCNc3cccc4nnn(C5CCC(=O)NC5=O)c(=O)c34)cc2)C(C)(C)[C@H]1Oc1ccc(C#N)c(Cl)c1 (single isomer, unassigned) [Example 3] here
430

* * *

Test system: LNCaP cells
log10(CC50): recorded values
Please note: log10 values; quantity CC50; unit nM.

Examples from the recorded data:
CC1(C)C(NC(=O)c2ccc(OCCOCCOCCOCCOCCOCCCCNc3cccc4nnn(C5CCC(=O)NC5=O)c(=O)c34)cc2)C(C)(C)C1Oc1ccc(C#N)c(Cl)c1 (stereo not shown) :: 3.20
CC1(C)[C@H](NC(=O)c2ccc(N3CCN(CC4CCN(c5cccc6nnn(C7CCC(=O)NC7=O)c(=O)c56)CC4)CC3)cc2)C(C)(C)[C@H]1Oc1ccc(C#N)c(Cl)c1 (stereo partly shown) :: 2.96
CC1(C)[C@H](NC(=O)c2ccc(N3CCN(CCCC4CCN(C(=O)C5CN(c6ccc7nnn(C8CCC(=O)NC8=O)c(=O)c7c6)C5)CC4)CC3)cc2)C(C)(C)[C@H]1Oc1ccc(C#N)c(Cl)c1 (stereo partly shown) :: 2.23
CC1(C)[C@H](NC(=O)c2ccc(N3CCN(CCC4CCN(c5cccc6nnn(C7CCC(=O)NC7=O)c(=O)c56)CC4)CC3)cc2)C(C)(C)[C@H]1Oc1ccc(C#N)c(Cl)c1 (stereo partly shown) :: 3.11
CC1(C)C(NC(=O)c2ccc(OCCOCCOCCOCCOCCOCCCCNc3ccc4nnn(C5CCC(=O)NC5=O)c(=O)c4c3)cc2)C(C)(C)C1Oc1ccc(C#N)c(Cl)c1 (stereo not shown) :: 2.92
CC1(C)[C@H](NC(=O)c2ccc(C#CC3CCN(CC4CCN(c5ccc6nnn(C7CCC(=O)NC7=O)c(=O)c6c5)CC4)CC3)cc2)C(C)(C)[C@H]1Oc1ccc(C#N)c(Cl)c1 (stereo partly shown) :: 1.50

Read the next record carefully.
Lab note: LNCaP cells assay, enter log10(CC50) for CC1(C)[C@H](NC(=O)c2ccc(-n3cc(C4CCN(C(=O)C5CN(c6ccc7nnn(C8CCC(=O)NC8=O)c(=O)c7c6)C5)CC4)nn3)cc2)C(C)(C)[C@H]1Oc1ccc(C#N)c(Cl)c1 (stereo partly shown) here
0.85

Every entry's value here was drawn from patent US20240018123A1.
